Overview of recorded Rank (by Kallikrein binding) for various binders
STUDY_TARGET: T1, biotinylated human plasma Kallikrein (human, UniProt P03952 20-638, biotinylated)
T1 construct: also called Biotinylated hPK
T1 sequence (P03952 20-638 limits assumed): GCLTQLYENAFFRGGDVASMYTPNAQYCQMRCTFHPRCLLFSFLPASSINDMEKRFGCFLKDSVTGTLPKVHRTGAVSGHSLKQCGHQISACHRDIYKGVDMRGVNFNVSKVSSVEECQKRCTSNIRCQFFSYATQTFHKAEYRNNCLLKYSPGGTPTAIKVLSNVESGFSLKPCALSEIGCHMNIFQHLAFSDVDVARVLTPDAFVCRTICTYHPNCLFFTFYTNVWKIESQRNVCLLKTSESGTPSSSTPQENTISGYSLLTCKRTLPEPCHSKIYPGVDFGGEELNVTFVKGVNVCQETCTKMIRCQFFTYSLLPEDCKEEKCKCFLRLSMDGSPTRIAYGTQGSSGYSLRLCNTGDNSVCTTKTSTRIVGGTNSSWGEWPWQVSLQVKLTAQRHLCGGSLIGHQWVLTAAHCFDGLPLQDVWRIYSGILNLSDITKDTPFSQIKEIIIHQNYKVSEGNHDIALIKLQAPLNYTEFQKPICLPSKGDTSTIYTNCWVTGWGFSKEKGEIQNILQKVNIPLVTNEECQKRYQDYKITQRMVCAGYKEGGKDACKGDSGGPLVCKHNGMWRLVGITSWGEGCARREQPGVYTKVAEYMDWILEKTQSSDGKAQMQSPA
ASSAY_COMMENT: phage binding assay
Numbered stars: 1 amine (or outer) side, 2 acyl side, 3 side chain; on linkers, the order of the positions; unused ones are H or OH. Bridge positions count the residues as written; N and C are the ends. Ends that are not written are not given here. TBMB = c1c(C[*:1])cc(C[*:3])cc1C[*:2]
RECORDED_METRIC: Rank (by Kallikrein binding)

{"columns": ["BINDER", "READOUT_NUMBER"],
 "data": [
  ["CSWPARCTHQDLC (linker 1-7-13 via TBMB) [SEQ ID NO 73]", 1],
  ["CSWQARCTHQDLC (linker 1-7-13 via TBMB) [SEQ ID NO 114]", 42],
  ["CSYPFRCTHQDLC (linker 1-7-13 via TBMB) [SEQ ID NO 93]", 21],
  ["CSFPIRCTHQDLC (linker 1-7-13 via TBMB) [SEQ ID NO 87]", 15],
  ["CSFPWRCTHQDLC (linker 1-7-13 via TBMB) [SEQ ID NO 95]", 23],
  ["CSFPYRCTHQDLC (linker 1-7-13 via TBMB) [SEQ ID NO 77]", 5]
]}
